- Measurement Target: PCSK9 (Homo sapiens)
- Sequence (Q8NBP7 153-692): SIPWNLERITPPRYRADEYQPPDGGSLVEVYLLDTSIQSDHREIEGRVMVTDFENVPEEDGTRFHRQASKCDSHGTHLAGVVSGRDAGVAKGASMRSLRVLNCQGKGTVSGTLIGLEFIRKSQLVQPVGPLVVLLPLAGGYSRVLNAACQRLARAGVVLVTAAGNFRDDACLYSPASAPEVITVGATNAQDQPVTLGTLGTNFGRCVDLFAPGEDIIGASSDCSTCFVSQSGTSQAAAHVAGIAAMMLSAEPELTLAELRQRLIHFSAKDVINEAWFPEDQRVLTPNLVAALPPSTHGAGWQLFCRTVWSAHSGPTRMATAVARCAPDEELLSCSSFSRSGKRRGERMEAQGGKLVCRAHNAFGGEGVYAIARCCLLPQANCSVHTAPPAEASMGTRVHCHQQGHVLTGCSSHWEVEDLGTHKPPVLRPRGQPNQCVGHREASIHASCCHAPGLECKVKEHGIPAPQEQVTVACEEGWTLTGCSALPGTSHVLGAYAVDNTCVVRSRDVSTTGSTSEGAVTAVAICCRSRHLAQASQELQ
- Sequence (Q8NBP7 31-152 partner limits assumed): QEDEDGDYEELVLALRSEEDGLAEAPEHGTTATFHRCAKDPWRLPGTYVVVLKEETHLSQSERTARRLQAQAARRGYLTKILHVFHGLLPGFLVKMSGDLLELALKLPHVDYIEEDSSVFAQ
- Assay Protocol: PCSK9/EGF(A) TR-FRET binding assay
- Measurement Parameters: TR-FRET; Table 8E, additional compounds; read-out: PCSK9/EGF(A) IC50
Numbered stars: 1 amine (or outer) side, 2 acyl side, 3 side chain; on linkers, the order of the positions; unused ones are H or OH. Square brackets hold non-standard residues; d marks the D form. Peptide text beside a SMILES is read from it. * marks the point of attachment. X43 = CS(=O)(=O)c1ccc(C(=O)CCC(=O)*)cc1; hArg = N=C(N)NCCCC[C@H](N)C(=O)O; X8 = O=C(c1ccc(N2CCOCC2)nc1)*; Suc = O=C(CCC(=O)[*:2])[*:1]; X25 = COc1cc(CCC(=O)*)ccc1O; X31 = Cc1ccc(OCCCC(=O)*)cc1; Morpholide = C1CN(*)CCO1; X26 = O=C1CCCN1CCC(=O)*; Pentanoyl = CCCCC(=O)*
// NB: equality with 7 µM counts as NOT MET; only IC50 strictly below is MET

>  <Compound>
CC[C@H](C)[C@H](NC(=O)[C@H](CCCCNC(=N)N)NC(=O)[C@@H](NC(=O)[C@H](CC(C)C)NC(=O)[C@H](CC(N)=O)NC(=O)[C@H](Cc1c[nH]c2ccccc12)NC(=O)CCc1ccc(O)c(OC)c1)C(C)C)C(=O)NCC(=O)N[C@@H](CC(C)C)C(=O)N[C@@H](CC(C)C)C(=O)N[C@@H](CCCNC(=N)N)C(N)=O [Compound 213] (X25-WNLV[hArg]IGLLR-NH2)

>  <Measurement Target>
PCSK9 (Homo sapiens)

>  <Discrete Label>
MET

$$$$
>  <Compound>
CCCCC(=O)N[C@@H](Cc1c[nH]c2ccccc12)C(=O)N[C@@H](CC(N)=O)C(=O)N[C@@H](CC(C)C)C(=O)N[C@H](C(=O)N[C@@H](CCCNC(=N)N)C(=O)N[C@H](C(=O)NCC(=O)N[C@@H](CC(C)C)C(=O)N[C@@H](CCC(=O)O)C(=O)N[C@@H](CCCNC(=N)N)C(N)=O)[C@@H](C)CC)C(C)C [Compound 177] (Pentanoyl-WNLVRIGLER-NH2)

>  <Measurement Target>
PCSK9 (Homo sapiens)

>  <Discrete Label>
NOT MET

$$$$
>  <Compound>
CCCCC(=O)N[C@@H](Cc1c[nH]c2ccccc12)C(=O)N[C@@H](CC(N)=O)C(=O)N[C@@H](CC(C)C)C(=O)N[C@H](C(=O)N[C@@H](CCCCNC(=N)N)C(=O)N[C@H](C(=O)NCC(=O)N[C@@H](CC(C)C)C(=O)N[C@H](C(=O)N[C@@H](CCCNC(=N)N)C(=O)O)[C@@H](C)O)[C@@H](C)CC)C(C)C [Compound 235, n-BuC(O)-WNLV(homoR)IGLTR] (Pentanoyl-WNLV[hArg]IGLTR-OH)

>  <Measurement Target>
PCSK9 (Homo sapiens)

>  <Discrete Label>
NOT MET

$$$$
>  <Compound>
CC[C@H](C)[C@H](NC(=O)[C@H](CCCNC(=N)N)NC(=O)[C@@H](NC(=O)[C@H](CC(C)C)NC(=O)[C@H](CC(N)=O)NC(=O)[C@H](Cc1c[nH]c2ccccc12)NC(=O)CCN1CCCC1=O)C(C)C)C(=O)NCC(=O)N[C@@H](CC(C)C)C(=O)N[C@@H](CC(C)C)C(=O)N[C@@H](CCCNC(=N)N)C(N)=O [Compound 128] (X26-WNLVRIGLLR-NH2)

>  <Measurement Target>
PCSK9 (Homo sapiens)

>  <Discrete Label>
NOT MET

$$$$
>  <Compound>
CC[C@H](C)[C@H](NC(=O)[C@H](CCCNC(=N)N)NC(=O)[C@@H](NC(=O)[C@H](CC(C)C)NC(=O)[C@H](CC(N)=O)NC(=O)[C@H](Cc1c[nH]c2ccccc12)NC(=O)CCC(=O)c1ccc(S(C)(=O)=O)cc1)C(C)C)C(=O)NCC(=O)N[C@@H](CC(C)C)C(=O)N[C@H](C(=O)N[C@@H](CCCNC(=N)N)C(N)=O)[C@@H](C)O [Compound 163] (X43-WNLVRIGLTR-NH2)

>  <Measurement Target>
PCSK9 (Homo sapiens)

>  <Discrete Label>
NOT MET

$$$$
>  <Compound>
CC[C@H](C)[C@H](NC(=O)[C@H](CCCCNC(=N)N)NC(=O)[C@@H](NC(=O)[C@H](CC(C)C)NC(=O)[C@H](CC(N)=O)NC(=O)[C@H](Cc1c[nH]c2ccccc12)NC(=O)CCCOc1ccc(C)cc1)C(C)C)C(=O)NCC(=O)N[C@@H](CC(C)C)C(=O)N[C@@H](CC(C)C)C(=O)N[C@@H](CCCNC(=N)N)C(N)=O [Compound 207] (X31-WNLV[hArg]IGLLR-NH2)

>  <Measurement Target>
PCSK9 (Homo sapiens)

>  <Discrete Label>
MET

$$$$
>  <Compound>
CC[C@H](C)[C@H](NC(=O)[C@H](CCCCNC(=N)N)NC(=O)[C@@H](NC(=O)[C@H](CC(C)C)NC(=O)[C@H](CC(N)=O)NC(=O)[C@H](Cc1c[nH]c2ccccc12)NC(C)=O)C(C)C)C(=O)NCC(=O)N[C@@H](CC(C)C)C(=O)N[C@@H](CC(C)C)C(=O)N[C@@H](CCCNC(=N)N)C(N)=O [Compound 192, Ac-WNLV(homoR)IGLLR-NH2] (Ac-WNLV[hArg]IGLLR-NH2)

>  <Measurement Target>
PCSK9 (Homo sapiens)

>  <Discrete Label>
NOT MET

$$$$
>  <Compound>
CC[C@H](C)[C@H](NC(=O)[C@H](CCCCNC(=N)N)NC(=O)[C@@H](NC(=O)[C@H](CC(C)C)NC(=O)[C@H](CC(N)=O)NC(=O)[C@H](Cc1c[nH]c2ccccc12)NC(=O)c1ccc(N2CCOCC2)nc1)C(C)C)C(=O)NCC(=O)N[C@@H](CC(C)C)C(=O)N[C@@H](CC(C)C)C(=O)N[C@@H](CCCNC(=N)N)C(N)=O [Compound 219] (X8-WNLV[hArg]IGLLR-NH2)

>  <Measurement Target>
PCSK9 (Homo sapiens)

>  <Discrete Label>
NOT MET

$$$$
>  <Compound>
CC[C@H](C)[C@H](NC(=O)[C@H](CCCNC(=N)N)NC(=O)[C@@H](NC(=O)[C@H](CC(C)C)NC(=O)[C@H](CC(N)=O)NC(=O)[C@H](Cc1c[nH]c2ccccc12)NC(=O)CCC(=O)N1CCOCC1)C(C)C)C(=O)NCC(=O)N[C@@H](CC(C)C)C(=O)N[C@H](C(=O)N[C@@H](CCCNC(=N)N)C(N)=O)[C@@H](C)O [Compound 167] ({Morpholide-Suc}-WNLVRIGLTR-NH2)

>  <Measurement Target>
PCSK9 (Homo sapiens)

>  <Discrete Label>
NOT MET

$$$$
>  <Compound>
CC[C@H](C)[C@H](NC(=O)[C@H](CCCCNC(=N)N)NC(=O)[C@@H](NC(=O)[C@H](CC(C)C)NC(=O)[C@H](CC(N)=O)NC(=O)[C@H](Cc1c[nH]c2ccccc12)NC(=O)CNC(=O)[C@@H]1CCCN1C(=O)[C@H](Cc1ccccc1)NC(=O)[C@H](CO)NC(=O)[C@H](CCC(=O)O)NC(=O)[C@H](CCSC)NC(C)=O)C(C)C)C(=O)NCC(=O)N[C@@H](CC(C)C)C(=O)N[C@@H](CC(C)C)C(=O)N[C@@H](CCCNC(=N)N)C(N)=O [Compound 229] (Ac-MESFPGWNLV[hArg]IGLLR-NH2)

>  <Measurement Target>
PCSK9 (Homo sapiens)

>  <Discrete Label>
MET

$$$$

These measurements were taken from patent US11034725B2.
